Target Or System: TrkB (Homo sapiens, UniProt Q16620)
Construct: The kinase domain of the human TrkB receptor (amino acids 526-838); His
Sequence (Q16620 510-822): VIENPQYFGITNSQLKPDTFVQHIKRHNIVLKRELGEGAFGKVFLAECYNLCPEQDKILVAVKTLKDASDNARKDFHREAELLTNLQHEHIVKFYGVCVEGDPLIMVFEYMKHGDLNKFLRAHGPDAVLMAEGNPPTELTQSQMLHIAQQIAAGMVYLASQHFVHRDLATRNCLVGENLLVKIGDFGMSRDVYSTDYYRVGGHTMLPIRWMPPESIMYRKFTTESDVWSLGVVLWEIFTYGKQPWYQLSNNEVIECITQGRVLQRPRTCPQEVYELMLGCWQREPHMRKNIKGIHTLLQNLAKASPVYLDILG
Measurement Notes: TrkB tyrosine kinase inhibition assay (recombinant enzyme, polyGluTyr phosphorylation, 33P)
Test Conditions: kinase domain of human TrkB (amino acids 526-838), substrate PGT 0.1 mg/ml, 30 uM ATP, 1 hour at 30° C.
pIC50: −log10 of the molar value.
Property Measured: pIC50

> print(dat)
                              sample.smiles  property.measured  observed.result
1  CCCC[C@H](C)Nc1nc(Nc2cc(C3CC3)[nH]n2)nn2cccc12              pIC50             8.70

(1) C[C@H](Nc1nc(Nc2cc(C3CC3)[nH]n2)nn2cccc12)c1ccc(F)cc1
(2) CC(C)[C@@H](CO)Nc1nc(Nc2cc(C3CC3)[nH]n2)nn2cccc12
(3) C[C@H](Nc1nc(Nc2cc(C3CC3)[nH]n2)nn2cccc12)C1CCCCC1
Sort low-to-high on pIC50, please. Write the labels in rank order as requested.
2, 3, 1
